Entries and their inhibition at 100 µg/mL values follow.
# Tested on: Platelet
# ASSAY TEXT: Inhibition of thrombin-induced rabbit platelet aggregation at 100 ug/ml
# Type: functional
# EXPERIMENTAL PARAMETERS: Oryctolagus cuniculus
QUANTITY NAME: inhibition at 100 µg/mL (%)

{"COMPOUND": "COc1ccc2cc3c4c(cc(OC)c(OC)c4c2c1)C(=O)N3 [ARISTOLACTAM BIII]", "TARGET OR SYSTEM": "Platelet", "UNITS": "%", "OBSERVED RESULT": 89.3}
{"COMPOUND": "COc1c(O)cc2c3c(cc4ccccc4c13)NC(=O)C2=O [NORARISTOLODIONE]", "TARGET OR SYSTEM": "Platelet", "UNITS": "%", "OBSERVED RESULT": 88.7}
{"COMPOUND": "COc1c(O)cc2c3c(cc4ccc(O)cc4c13)NC2=O [ARISTOLACTAM AIIIA]", "TARGET OR SYSTEM": "Platelet", "UNITS": "%", "OBSERVED RESULT": 90.6}
{"COMPOUND": "COc1c(OC)c(OC)c2c3c(cc4ccccc42)NC(=O)c13 [PIPEROLACTAM C]", "TARGET OR SYSTEM": "Platelet", "UNITS": "%", "OBSERVED RESULT": 83.7}
{"COMPOUND": "COc1c(O)cc2c3c(cc4ccccc4c13)NC2=O [ARISTOLACTAM AII]", "TARGET OR SYSTEM": "Platelet", "UNITS": "%", "OBSERVED RESULT": 90}
{"COMPOUND": "COc1cc2c3c(cc4c(O)cccc4c3c1OC)NC2=O [VELUTINAM]", "TARGET OR SYSTEM": "Platelet", "UNITS": "%", "OBSERVED RESULT": 92.1}

====

Listed here are compounds together with their documented inhibition at 100 µg/mL.
# Tested on: Platelet
# ASSAY TEXT: Inhibition of arachidonic acid-induced rabbit platelet aggregation at 100 ug/ml
# Format: functional
# EXPERIMENTAL PARAMETERS: Oryctolagus cuniculus

{"COMPOUND": "COc1cc2c3c(cc4ccc(O)cc4c3c1OC)NC2=O [GONIOTHALACTAM]", "inhibition at 100 µg/mL": "13.6%"}
{"COMPOUND": "COc1c(O)c(OC)c2c3c(cc4ccccc42)NC(=O)c13 [ARISTOLACTAM F II]", "inhibition at 100 µg/mL": "8.5%"}
{"COMPOUND": "COc1cc2c3c(cc4ccccc4c3c1O)NC2=O [PIPEROLACTAM A]", "inhibition at 100 µg/mL": "0%"}
{"COMPOUND": "COc1ccc2cc3c4c(cc(OC)c(OC)c4c2c1)C(=O)N3 [ARISTOLACTAM BIII]", "inhibition at 100 µg/mL": "71.9%"}
{"COMPOUND": "COc1c(O)cc2c3c(cc4ccccc4c13)NC2=O [ARISTOLACTAM AII]", "inhibition at 100 µg/mL": "86.3%"}

====

Collected inhibition at 20 µg/mL values appear next to each entry.
# Tested on: Platelet
# ASSAY TEXT: Inhibition of collagen-induced rabbit platelet aggregation at 20 ug/ml
# Assay type: functional
# EXPERIMENTAL PARAMETERS: Oryctolagus cuniculus
QUANTITY NAME: inhibition at 20 µg/mL (%)

{"SMILES STRUCTURE": "COc1cc2c3c(cc4ccc(O)cc4c3c1OC)NC2=O", "OBSERVED RESULT": 75.9}
{"SMILES STRUCTURE": "COc1c(OC)c(OC)c2c3c(cc4ccc(O)cc42)NC(=O)c13", "OBSERVED RESULT": 72.9}
{"SMILES STRUCTURE": "COc1cc2c3c(cc4ccccc4c3c1O)NC2=O", "OBSERVED RESULT": 84.2}
{"SMILES STRUCTURE": "COc1c(O)c(OC)c2c3c(cc4ccccc42)NC(=O)c13", "OBSERVED RESULT": 81.7}
{"SMILES STRUCTURE": "COc1cccc2c1c(OC)c1c3c(cc(O)c(OC)c32)C(=O)N1", "OBSERVED RESULT": 72.9}
{"SMILES STRUCTURE": "COc1c(O)cc2c3c(cc4ccccc4c13)NC(=O)C2=O", "OBSERVED RESULT": 84.7}

====

# Tested on: Platelet
# ASSAY TEXT: Inhibition of arachidonic acid-induced rabbit platelet aggregation at 100 ug/ml
# Type: functional
# EXPERIMENTAL PARAMETERS: Oryctolagus cuniculus
Please mark 1 (yes) if the recorded inhibition at 100 µg/mL is equal to or greater than 10%, and 0 (no) if it falls below.

{"COMPOUND": "COc1cccc2c1c(OC)c1c3c(cc(O)c(OC)c32)C(=O)N1 [ENTEROCARPAM I]", "CLASS NAME": "0 (no)"}
{"COMPOUND": "COc1c(OC)c(OC)c2c3c(cc4ccccc42)NC(=O)c13 [PIPEROLACTAM C]", "CLASS NAME": "0 (no)"}
{"COMPOUND": "CC(=O)Oc1ccccc1C(=O)O [ASPIRIN]", "CLASS NAME": "0 (no)"}
{"COMPOUND": "COc1c(O)cc2c3c(cc4ccc(O)cc4c13)NC2=O [ARISTOLACTAM AIIIA]", "CLASS NAME": "1 (yes)"}
{"COMPOUND": "COc1c(OC)c(OC)c2c3c(cc4ccc(O)cc42)NC(=O)c13 [STIGMALACTAM]", "CLASS NAME": "1 (yes)"}
{"COMPOUND": "COc1c(O)cc2c3c(cc4ccccc4c13)NC(=O)C2=O [NORARISTOLODIONE]", "CLASS NAME": "1 (yes)"}
{"COMPOUND": "COc1cc2c3c(cc4c(O)cccc4c3c1OC)NC2=O [VELUTINAM]", "CLASS NAME": "1 (yes)"}

====

Below: a set of entries, each annotated with reported inhibition at 20 µg/mL.
# System: Platelet
# ASSAY TEXT: Inhibition of arachidonic acid-induced rabbit platelet aggregation at 20 ug/ml
# Format: functional
# EXPERIMENTAL PARAMETERS: Oryctolagus cuniculus

{"SMILES STRUCTURE": "COc1cc2c3c(cc4ccc(O)cc4c3c1OC)NC2=O", "UNITS": "%", "inhibition at 20 µg/mL": 81.6}
{"SMILES STRUCTURE": "COc1cccc2c1c(OC)c1c3c(cc(O)c(OC)c32)C(=O)N1", "UNITS": "%", "inhibition at 20 µg/mL": 46.4}
{"SMILES STRUCTURE": "COc1c(OC)c(OC)c2c3c(cc4ccc(O)cc42)NC(=O)c13", "UNITS": "%", "inhibition at 20 µg/mL": 46.4}
{"SMILES STRUCTURE": "COc1cc2c3c(cc4ccccc4c3c1O)NC2=O", "UNITS": "%", "inhibition at 20 µg/mL": 83.5}
{"SMILES STRUCTURE": "COc1c(O)c(OC)c2c3c(cc4ccccc42)NC(=O)c13", "UNITS": "%", "inhibition at 20 µg/mL": 52.5}
